Test summary: self-splicing fitness, log relative to wild type (ln ratio); higher = more splicing; Tetrahymena group I intron in knt gene, E. coli kanamycin selection, DiMSum; sequences stand for … in CUCUCU…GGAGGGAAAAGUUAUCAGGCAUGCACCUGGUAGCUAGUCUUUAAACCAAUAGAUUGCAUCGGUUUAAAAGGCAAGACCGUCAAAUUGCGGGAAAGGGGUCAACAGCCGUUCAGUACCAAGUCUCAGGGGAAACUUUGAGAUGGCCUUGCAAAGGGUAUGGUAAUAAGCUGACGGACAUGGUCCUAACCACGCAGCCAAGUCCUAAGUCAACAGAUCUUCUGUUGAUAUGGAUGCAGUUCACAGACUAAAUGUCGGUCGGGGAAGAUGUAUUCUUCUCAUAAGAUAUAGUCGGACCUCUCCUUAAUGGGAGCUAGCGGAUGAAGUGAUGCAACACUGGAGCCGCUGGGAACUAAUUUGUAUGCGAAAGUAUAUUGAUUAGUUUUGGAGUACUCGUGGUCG;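 note: selection with 25 µg/mL kanamycin versus none on LB agar overnight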
Assay conditions: 37 °C

Macromolecule sequence | self-splicing fitness (ln)
UCCGAGCAAUAUUACGUUCU | -2.62
CUGAAGCAAUAUUACGUUGA | -2.66
GGGGAGCAAUAUUACGGGUA | -2.25
CACUAGCAAUAUUACGUUGC | -1.58
UAAAAGCAAUAUUACGGCGC | -0.483
UACCAGCAAUAUUACGGUGG | -1.87
CGACAGCAAUAUUACGAUUA | -0.873
UAUCAGCAAUAUUACGCCCC | -1.06
CAAUAGCAAUAUUACGUACG | -0.069
GUUUAGCAAUAUUACGCUCC | 1.01
UGUUAGCAAUAUUACGAUCU | -0.148
CUGCAGCAAUAUUACGUUCC | -1.74
UGAAAGCAAUAUUACGUUUG | -0.682
CUGUAGCAAUAUUACGUUCA | -1.45
AUACAGCAAUAUUACGCAAA | -1.07
GUCUAGCAAUAUUACGACGU | 0.696
AGUUAGCAAUAUUACGCAAA | -1.57
GACGAGCAAUAUUACGUGGG | -3.12
GCAUAGCAAUAUUACGUACG | -1.14
CGAUAGCAAUAUUACGACGC | 0.00994
GCGGAGCAAUAUUACGAUGA | -2.23
UCUCAGCAAUAUUACGUAGU | -0.822
GUAAAGCAAUAUUACGAGAC | -1.08
UACAAGCAAUAUUACGCGCU | -0.322
CGACAGCAAUAUUACGUCAA | -1.21
GCAGAGCAAUAUUACGGAUG | -1.82
GAGGAGCAAUAUUACGGGGG | -3.13
UCUCAGCAAUAUUACGAUAU | -1.75
CACAAGCAAUAUUACGGAAU | -2.28
AGUAAGCAAUAUUACGAUAC | -2.48
CCCCAGCAAUAUUACGUCCG | -2.09
AUCUAGCAAUAUUACGCCGA | -0.198
AGCCAGCAAUAUUACGCCGU | -1.76
ACUGAGCAAUAUUACGAUAC | -1.96
UGACAGCAAUAUUACGACUG | 0.371
UCUGAGCAAUAUUACGUUCU | -2.89
AGGGAGCAAUAUUACGUCUA | -2.26
GACAAGCAAUAUUACGCUGA | -1.55
UGCCAGCAAUAUUACGUUUA | -1.51
UCAGAGCAAUAUUACGAAAA | -2.13
CUCCAGCAAUAUUACGUGUA | -2.82
UAGUAGCAAUAUUACGUAUU | -1.96
AGGAAGCAAUAUUACGCACC | 0.0459
GACUAGCAAUAUUACGAGAG | -2.28
AAUUAGCAAUAUUACGCAAA | 0.00784
GAGCAGCAAUAUUACGACGG | -2.18
AAUGAGCAAUAUUACGCGCU | -1.72
CUCAAGCAAUAUUACGACCA | -0.985
GUACAGCAAUAUUACGUAGA | -1.35
CACCAGCAAUAUUACGCAAA | -2.99
GCUAAGCAAUAUUACGUCUA | -0.911
CCAUAGCAAUAUUACGCCUC | -1.74
UCGCAGCAAUAUUACGUACG | -0.686
UUUCAGCAAUAUUACGUUUU | -1.13
GACAAGCAAUAUUACGAACU | 0.284
AUUAAGCAAUAUUACGCUGG | -1.39
AUGUAGCAAUAUUACGCAUU | -2.89
CGGCAGCAAUAUUACGGUUU | -0.769
CGCUAGCAAUAUUACGAGAU | -3.36
CGUGAGCAAUAUUACGGCGU | -1.32
AAGUAGCAAUAUUACGCCGG | -1.59
GUAAAGCAAUAUUACGCGAA | -1.25
CAGUAGCAAUAUUACGCCGA | -0.00684
GGAUAGCAAUAUUACGGCUG | -0.733
AAAUAGCAAUAUUACGGCGG | -0.335
UUAGAGCAAUAUUACGCGCA | -0.112
UUCCAGCAAUAUUACGAACA | -0.887

----------
Test summary: self-splicing fitness, log relative to wild type (ln ratio); higher = more splicing; Tetrahymena group I intron in knt gene, E. coli kanamycin selection, DiMSum; sequences stand for … in CUCUCU…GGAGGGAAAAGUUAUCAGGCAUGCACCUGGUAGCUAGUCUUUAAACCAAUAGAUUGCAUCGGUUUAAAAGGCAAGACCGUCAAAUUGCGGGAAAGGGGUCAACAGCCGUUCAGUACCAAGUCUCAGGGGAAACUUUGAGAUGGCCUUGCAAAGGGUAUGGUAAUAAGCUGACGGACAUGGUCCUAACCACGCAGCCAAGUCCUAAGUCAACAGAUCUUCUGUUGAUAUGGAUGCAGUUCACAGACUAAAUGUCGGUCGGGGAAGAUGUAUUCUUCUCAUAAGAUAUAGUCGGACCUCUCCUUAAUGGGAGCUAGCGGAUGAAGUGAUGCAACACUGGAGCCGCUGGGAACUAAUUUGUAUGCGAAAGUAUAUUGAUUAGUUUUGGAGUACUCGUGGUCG
Assay conditions: 37 °C

Macromolecule sequence | self-splicing fitness (ln)
ACUUAGCAAUAUUACGGCAC | -1.07
UGGAAGCAAUAUUACGCGGU | -2.69
GUUCAGCAAUAUUACGACGU | 0.108
CCCUAGCAAUAUUACGUGCG | -2.97
CGCCAGCAAUAUUACGCCGC | -1.39
AGAUAGCAAUAUUACGCAAA | -1.75
AAACAGCAAUAUUACGUAGU | -1.62
UAGUAGCAAUAUUACGUGAG | -1.87
CGCAAGCAAUAUUACGACUU | -2.07
AAUUAGCAAUAUUACGGCCC | -0.626
UUCGAGCAAUAUUACGGGCC | -2.21
UAGCAGCAAUAUUACGUUCU | -0.606
ACAAAGCAAUAUUACGAAUA | -1.95
AUCCAGCAAUAUUACGCGUU | -0.503
CCCUAGCAAUAUUACGAACC | -2.28
UAACAGCAAUAUUACGGCGG | -0.105
GCCUAGCAAUAUUACGGGUU | -2.02
GAGCAGCAAUAUUACGCACG | -0.692
UAGCAGCAAUAUUACGUUGG | -2.22
UAGAAGCAAUAUUACGAAGA | -0.969
AACUAGCAAUAUUACGGAGU | -1.42
GCCGAGCAAUAUUACGAGAA | -0.755
ACCCAGCAAUAUUACGCGUC | -1.42
UAUUAGCAAUAUUACGAUUA | -0.402
UCUCAGCAAUAUUACGGCGC | -1.78
GCUAAGCAAUAUUACGUAUA | -0.55
UUAAAGCAAUAUUACGGCCG | 0.0811
UUCUAGCAAUAUUACGAUGG | -1.02
CAGCAGCAAUAUUACGAUAU | -2.3
UGCCAGCAAUAUUACGAGUG | -0.537
CCCUAGCAAUAUUACGACCU | -2.68
GUGUAGCAAUAUUACGCUGC | -1.08
ACUCAGCAAUAUUACGAUUC | -0.302
GCCGAGCAAUAUUACGUGGC | -2.25

----------
Test summary: self-splicing fitness, log relative to wild type (ln ratio); higher = more splicing; Tetrahymena group I intron in knt gene, E. coli kanamycin selection, DiMSum; sequences stand for … in CUCUCU…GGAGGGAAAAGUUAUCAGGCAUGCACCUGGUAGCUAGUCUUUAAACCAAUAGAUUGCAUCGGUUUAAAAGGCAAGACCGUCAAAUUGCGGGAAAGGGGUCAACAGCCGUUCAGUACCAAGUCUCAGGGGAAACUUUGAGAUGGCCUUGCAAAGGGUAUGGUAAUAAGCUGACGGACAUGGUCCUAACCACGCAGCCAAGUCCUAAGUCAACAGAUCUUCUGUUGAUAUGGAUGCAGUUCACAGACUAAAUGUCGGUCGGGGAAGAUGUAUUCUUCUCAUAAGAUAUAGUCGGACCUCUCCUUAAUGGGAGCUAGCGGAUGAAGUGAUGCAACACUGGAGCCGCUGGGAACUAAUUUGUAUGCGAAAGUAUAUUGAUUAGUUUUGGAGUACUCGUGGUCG
Assay conditions: 37 °C
Criterion: self-splicing fitness (ln) meeting or surpassing -1. Met: Yes. Not met: No.

Macromolecule sequence | Assigned label
AGUAAGCAAUAUUACGGGUG | Yes
AAACAGCAAUAUUACGCCCG | Yes
GAGAAGCAAUAUUACGUUGU | No
GGGGAGCAAUAUUACGGGAA | No
GAAAAGCAAUAUUACGGUGA | No
AUGGAGCAAUAUUACGUGCG | No
UAGGAGCAAUAUUACGGAAC | Yes
UACAAGCAAUAUUACGUGGA | No
CGUGAGCAAUAUUACGGGCA | No
GGGCAGCAAUAUUACGAUAC | Yes
GCCAAGCAAUAUUACGAACG | No
UACCAGCAAUAUUACGAUUA | Yes
AGGCAGCAAUAUUACGCCAU | No
GAGUAGCAAUAUUACGGGUC | No
GCACAGCAAUAUUACGGGCG | Yes
GUAAAGCAAUAUUACGACCC | Yes
GCAGAGCAAUAUUACGGGUC | No
ACAUAGCAAUAUUACGCCGG | Yes
UAUAAGCAAUAUUACGACGA | No
GUUCAGCAAUAUUACGCUUU | Yes
GAAGAGCAAUAUUACGGGCG | No
GACUAGCAAUAUUACGAAUU | Yes
CCACAGCAAUAUUACGGUAU | No
ACCGAGCAAUAUUACGAUAU | No
GCCCAGCAAUAUUACGCACU | Yes
CCGUAGCAAUAUUACGGAAC | No
CAUAAGCAAUAUUACGAACG | Yes
CCGUAGCAAUAUUACGCUAC | No
UUGAAGCAAUAUUACGGGCG | Yes
AGCUAGCAAUAUUACGACUG | Yes
GUCCAGCAAUAUUACGCUUC | Yes
CUCGAGCAAUAUUACGCGAA | No
ACUUAGCAAUAUUACGCGAC | No
